Values were extracted from the Human Domainome abundance scans (Beltran et al. 2025).

B1: WW domain-containing transcription regulator protein 1, residues 116 to 162; numbered along this chain, Q9GZV5 (parent)
chain: QSYDVTDELPLPPGWEMTFTATGQRYFLNHIEKITTWQDPRKAMNQP

Variants of: B1
Experiment: abundance fitness (aPCA) (normalised: wild type 0, dead -1); higher = more abundant; growth selection in yeast, the domain comes from the species named
Details: Homo sapiens
Measurement name: abundance fitness
Answer as a number with no unit attached.

Variant identifier	abundance fitness
I34T	-0.047
D39L	-0.599
S2P	-0.45
R41L	-0.747

Field abundance fitness (entry T22S ) reads -0.058

Field abundance fitness (entry Y3L ) reads -0.323

Field abundance fitness (entry L11K ) reads -0.746
